tested on: SF-539 CNS; test: NCI tumour cell line growth inhibition, 48 h
Is TGI at least 50 µM? Then Fulfilled. If not, Not fulfilled.

[
  {
    "compound": "Cc1ccc(NC(=O)c2cc3ccccc3cc2O)c(C)c1.Cc1ccc(NC(=O)c2cc3ccccc3cc2[O-])c(C)c1.[Ni+2]",
    "label": "Fulfilled"
  },
  {
    "compound": "C=C(C)[C@@H]1CC[C@]2(C(N)=O)CC[C@]3(C)[C@H](CC[C@@H]4[C@@]5(C)C/C(=C/c6cccnc6)[C@H](O)C(C)(C)[C@@H]5CC[C@]43C)[C@@H]12",
    "label": "Fulfilled"
  },
  {
    "compound": "N#CSc1ccc(S(N)(=O)=O)cc1",
    "label": "Fulfilled"
  },
  {
    "compound": "c1ccc2c(c1)[nH]c1c2ncc2[nH]c3ccccc3c21",
    "label": "Not fulfilled"
  },
  {
    "compound": "CCOC(=O)c1ccc(N=c2oc3ccc(OC)cc3cc2-c2nc3ccccc3[nH]2)cc1",
    "label": "Not fulfilled"
  },
  {
    "compound": "N#CC(c1ccccc1)N(CCOCCOCCN(C(=O)c1cccc2ccccc12)C(C#N)c1ccccc1)C(=O)c1cccc2ccccc12 (centres undefined)",
    "label": "Fulfilled"
  },
  {
    "compound": "Nc1nc(-c2ccccc2)cc(-c2ccc(Cl)cc2)c1-c1nc2ccccc2o1",
    "label": "Not fulfilled"
  },
  {
    "compound": "Cc1cn(C2CC(NC(=NCC3OC(n4cnc5c(N)ncnc54)CC3O)NC#N)C(CO)O2)c(=O)[nH]c1=O (centres undefined)",
    "label": "Fulfilled"
  }
]

====

Reported values of TGI for individual entries
test system: HCT-116 colon; assay: NCI tumour cell line growth inhibition, 48 h

[
  {
    "molecule": "Cn1nc2ccccc2cc1=O",
    "experimental.target": "HCT-116 colon",
    "comparison.sign": ">",
    "TGI, µM": 100
  },
  {
    "molecule": "OC(CC(O)(C(F)(F)F)C(F)(F)F)C(O)c1ccco1 (centres undefined)",
    "experimental.target": "HCT-116 colon",
    "comparison.sign": ">",
    "TGI, µM": 10
  },
  {
    "molecule": "COc1cc(Nc2nc3cc(C(F)(F)F)ccc3nc2C)cc(OC)c1OC",
    "experimental.target": "HCT-116 colon",
    "comparison.sign": "=",
    "TGI, µM": 21.1
  },
  {
    "molecule": "O=C(/C=C/c1ccc2c(c1)OCO2)CC(=O)/C=C/c1ccc2c(c1)OCO2",
    "experimental.target": "HCT-116 colon",
    "comparison.sign": ">",
    "TGI, µM": 100
  },
  {
    "molecule": "COc1cc2c3c(n(CCCN4CCCC(O)C4)c(=O)c2cc1OC)-c1cc2c(cc1C3=O)OCO2 (centres undefined)",
    "experimental.target": "HCT-116 colon",
    "comparison.sign": "=",
    "TGI, µM": 0.925
  },
  {
    "molecule": "CCc1ccccc1NC(=O)C(=O)CC(=O)c1sc(Nc2ccccc2Cl)nc1C",
    "experimental.target": "HCT-116 colon",
    "comparison.sign": "=",
    "TGI, µM": 50.4
  },
  {
    "molecule": "O=C(O)C1=NN(c2ccc(S(=O)(=O)O)cc2)C2(C1)SCC(=O)N2c1nc2ccccc2s1 (centres undefined)",
    "experimental.target": "HCT-116 colon",
    "comparison.sign": ">",
    "TGI, µM": 100
  },
  {
    "molecule": "COc1ccc(C2=NN(C(=O)c3cccnc3)C(O)(c3cc(F)c(Cl)cc3Cl)C2)cc1OC (centres undefined)",
    "experimental.target": "HCT-116 colon",
    "comparison.sign": "=",
    "TGI, µM": 29.2
  },
  {
    "molecule": "COc1cc2c(cc1OC)C(=O)/C(=C/c1ccc([N+](=O)[O-])cc1)CC2",
    "experimental.target": "HCT-116 colon",
    "comparison.sign": ">",
    "TGI, µM": 10
  },
  {
    "molecule": "CC#CC(=O)N1CC[C@@H](n2c(=O)n(-c3ccc(Oc4ccccc4)cc3)c3c(N)ncnc32)C1",
    "experimental.target": "HCT-116 colon",
    "comparison.sign": "=",
    "TGI, µM": 98.4
  },
  {
    "molecule": "COc1ccc(C2CC(=O)c3c(O)c(OC)c(OC)c(OC)c3O2)cc1O (centres undefined)",
    "experimental.target": "HCT-116 colon",
    "comparison.sign": ">",
    "TGI, µM": 100
  },
  {
    "molecule": "CCOCCOC[C@H]1CCCN(c2ccnc3sc(C(N)=O)c(N)c23)C1",
    "experimental.target": "HCT-116 colon",
    "comparison.sign": ">",
    "TGI, µM": 100
  },
  {
    "molecule": "Cc1cn(C2CC(NC(=NCC3OC(n4cnc5c(N)ncnc54)CC3O)NC#N)C(CO)O2)c(=O)[nH]c1=O (centres undefined)",
    "experimental.target": "HCT-116 colon",
    "comparison.sign": ">",
    "TGI, µM": 100
  },
  {
    "molecule": "O=C(Cc1ccccc1)NS(=O)(=O)c1ccccc1",
    "experimental.target": "HCT-116 colon",
    "comparison.sign": ">",
    "TGI, µM": 100
  },
  {
    "molecule": "CN(C)Cc1cc(/C=C/C(=O)c2ccc(Cl)c(Cl)c2)cc(CN(C)C)c1O",
    "experimental.target": "HCT-116 colon",
    "comparison.sign": "=",
    "TGI, µM": 26.1
  },
  {
    "molecule": "CCCc1c(C(=O)OCC)[nH]c(C(=O)CCC(=O)c2[nH]c(C(=O)OCC)c(CCC)c2C(=O)OCC)c1C(=O)OCC",
    "experimental.target": "HCT-116 colon",
    "comparison.sign": ">",
    "TGI, µM": 100
  },
  {
    "molecule": "CC(C)N1[C@@H]2CCCC[C@H]2N(C(C)C)P1(=O)C(=O)/C=C/c1ccccc1",
    "experimental.target": "HCT-116 colon",
    "comparison.sign": "=",
    "TGI, µM": 3.73
  },
  {
    "molecule": "CN1CCN(CC(=O)N2c3cccc4cccc(c34)N(C(=O)CN3CCN(C)CC3)C2c2cn(-c3ccccc3)nc2-c2cccc([N+](=O)[O-])c2)CC1",
    "experimental.target": "HCT-116 colon",
    "comparison.sign": "=",
    "TGI, µM": 3.1
  },
  {
    "molecule": "Nc1ncnc2c1ncn2C1OC(COC2C(CO)OC(OC(C(=O)O)C(O)C(OP(=O)(O)O)C(O)C(=O)O)C(O)C2O)C(O)C1O (centres undefined)",
    "experimental.target": "HCT-116 colon",
    "comparison.sign": ">",
    "TGI, µM": 100
  }
]

====

test system: HCC-2998 colon; experiment: NCI tumour cell line growth inhibition, 48 h; in the data active = GI50 below about 0.43 µM; inactive = the rest
Possible outcomes: active, inactive

[
  {
    "item.smiles": "CCN(CC)CC[n+]1cc2cc(OC)c(OC)cc2c2ccc3cc4c(cc3c21)OCO4",
    "label": "inactive"
  },
  {
    "item.smiles": "Cc1c(-c2nnc(-c3cc(Cl)c(Cl)cc3Cl)o2)nnn1-c1ccnc2c(C(F)(F)F)cccc12",
    "label": "inactive"
  },
  {
    "item.smiles": "C/C(=C\\c1ccn(-c2ccc(N)cc2F)n1)[C@@H]1C[C@@H]2O[C@]2(C)CCC[C@H](C)[C@H](O)[C@@H](C)C(=O)C(C)(C)[C@@H](O)CC(=O)O1",
    "label": "active"
  },
  {
    "item.smiles": "C=C1C(=O)O[C@H]2[C@H]1CC/C(COC(=O)NCc1cc(OC)cc(OC)c1)=C\\CC[C@@]1(C)O[C@@H]21",
    "label": "inactive"
  },
  {
    "item.smiles": "CC[CH2][Sn]([CH2]CC)([O]C(=O)Cc1ccc(F)cc1)[O][Sn]([CH2]CC)([CH2]CC)[O]C(=O)Cc1ccc(F)cc1",
    "label": "inactive"
  },
  {
    "item.smiles": "Cc1cc2nc(C(Cl)Cl)nc(-c3ccccc3)n2n1",
    "label": "inactive"
  },
  {
    "item.smiles": "C=C(C)[C@@H]1CC[C@]2(C(N)=O)CC[C@]3(C)[C@H](CC[C@@H]4[C@@]5(C)C/C(=C/c6cccnc6)[C@H](O)C(C)(C)[C@@H]5CC[C@]43C)[C@@H]12",
    "label": "inactive"
  }
]
